measurement-notes: Pharmacokinetics in CD-1 mice
Type: in vivo
condition-set: CD-1, mouse, plasma, iv, 50 mg/kg, single intravenous dose 50 mg/kg, mice sets 1-3 and mean ± S.D.
measured-metric: AUC(0-inf) (ng·h/mL)
Answers are plain numbers, in ng·h/mL.

Prompt: Recorded AUC(0-inf) of CCC(=O)NC(CC(C)C(Cl)(Cl)Cl)C(=O)N1C(=O)C=C(OC)C1CC(C)C(Cl)Cl (stereo not shown) [SINT1, Sintokamide A] , please.
Response: 1840

* * *

experimental-system: AR (Homo sapiens, UniProt P10275, T878A)
Construct: endogenous in cells; host or cells: LNCaP
Sequence (P10275 1-920 T878A): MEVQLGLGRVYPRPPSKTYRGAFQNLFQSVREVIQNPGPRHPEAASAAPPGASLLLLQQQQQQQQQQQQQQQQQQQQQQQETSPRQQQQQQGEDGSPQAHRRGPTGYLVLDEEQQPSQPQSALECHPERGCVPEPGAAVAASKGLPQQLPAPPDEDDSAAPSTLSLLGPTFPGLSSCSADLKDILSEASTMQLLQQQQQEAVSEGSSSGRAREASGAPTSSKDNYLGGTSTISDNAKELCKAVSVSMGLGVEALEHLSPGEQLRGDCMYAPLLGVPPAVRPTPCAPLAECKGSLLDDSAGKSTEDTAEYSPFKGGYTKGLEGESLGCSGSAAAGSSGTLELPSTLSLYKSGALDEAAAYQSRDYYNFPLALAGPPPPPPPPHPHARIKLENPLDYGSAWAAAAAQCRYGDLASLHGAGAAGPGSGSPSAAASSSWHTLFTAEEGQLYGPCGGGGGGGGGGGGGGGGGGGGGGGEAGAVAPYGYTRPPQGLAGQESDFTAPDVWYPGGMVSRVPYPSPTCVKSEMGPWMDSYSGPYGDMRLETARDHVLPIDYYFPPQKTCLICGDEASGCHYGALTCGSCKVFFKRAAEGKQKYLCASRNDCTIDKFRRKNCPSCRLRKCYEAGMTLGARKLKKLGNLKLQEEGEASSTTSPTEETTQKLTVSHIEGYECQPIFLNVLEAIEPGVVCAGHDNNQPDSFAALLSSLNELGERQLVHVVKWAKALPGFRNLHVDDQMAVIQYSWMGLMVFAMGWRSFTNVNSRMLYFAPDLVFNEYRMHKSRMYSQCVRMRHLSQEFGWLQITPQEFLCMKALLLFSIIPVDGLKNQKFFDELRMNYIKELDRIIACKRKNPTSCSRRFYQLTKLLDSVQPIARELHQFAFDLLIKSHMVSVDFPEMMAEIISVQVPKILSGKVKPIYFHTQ
measurement-notes: AR-responsive luciferase reporters (PSA (6.1 kb), PB, ARR3) in LNCaP cells, SINT1 and EPI-002 alone or combined
Type: cell-based
condition-set: IC50, PB-Luc, 1 nM R1881 48 h
measured-metric: IC50 (µM)
Give bare numbers, in µM.

Prompt: // map CCC(=O)NC(CC(C)C(Cl)(Cl)Cl)C(=O)N1C(=O)C=C(OC)C1CC(C)C(Cl)Cl (stereo not shown) [SINT1, Sintokamide A] to recorded IC50 (system: AR (Homo sapiens, UniProt P10275, T878A))
Response: 11.6
